assay: Toxicity (Mouse), conventional LD50 determination p.o.; format: in vivo; settings: in vivo, po
measurement-type: LD50 (mg/kg)
Answers are plain numbers, in mg/kg.

Known results for molecules:
Request: Sample C=CCOC(=O)C1=C(C)NC(C)=C(C(=O)OCC)C1c1ccccc1C(F)(F)F (stereo not shown) — what was its LD50?
Response: 630

Request: Same question for C#CCOC(=O)C1=C(C)NC(C)=C(C(=O)OC)C1c1ccccc1C(F)(F)F (stereo not shown) please.
Response: 200

Request: Same question for C#CCOC(=O)C1=C(C)NC(C)=C(C(=O)OCC)C1c1ccc(C(=O)OCC)cc1 (stereo not shown) please.
Response: 3000

Request: Same question for C=CCOC(=O)C1=C(C)NC(C)=C(C(=O)OCC)C1c1ccccc1Cl (stereo not shown) please.
Response: 630

Request: Same question for C#CCOC(=O)C1=C(C)NC(C)=C(C(=O)OCC)C1c1ccccc1OC (stereo not shown) please.
Response: 3000

I would be grateful if you could provide LD50 for each of the following entries.
1. C#CCOC(=O)C1=C(C)NC(C)=C(C(=O)OC)C1c1ccccc1F (stereo not shown)
2. C=CCOC(=O)C1=C(C)NC(C)=C(C(=O)OCC)C1c1ccc(OC)c(OC)c1OC (stereo not shown)
3. C#CCOC(=O)C1=C(C)NC(C)=C(C(=O)OCC)C1c1ccccc1C (stereo not shown)
4. C=CCOC(=O)C1=C(C)NC(C)=C(C(=O)OC)C1c1ccccc1F (stereo not shown)
5. CCOC(=O)C1=C(C)NC(C)=C(C(=O)OCCOC)C1c1ccccc1Cl (stereo not shown)

Response:
1: 200; 2: 3000; 3: 800; 4: 800; 5: 1000
